biological target: recombinant tick kinin receptor (BMLK3) (Rhipicephalus microplus, UniProt Q9NHA4); test: Dose-response dual-addition calcium fluorescence assay on BMLK3 cells; format: cell-based; details: second addition Rhimi-K-1 1 μmol L^−1; read-out: BMLK3 IC50
Sequence (Q9NHA4 entry or part of it): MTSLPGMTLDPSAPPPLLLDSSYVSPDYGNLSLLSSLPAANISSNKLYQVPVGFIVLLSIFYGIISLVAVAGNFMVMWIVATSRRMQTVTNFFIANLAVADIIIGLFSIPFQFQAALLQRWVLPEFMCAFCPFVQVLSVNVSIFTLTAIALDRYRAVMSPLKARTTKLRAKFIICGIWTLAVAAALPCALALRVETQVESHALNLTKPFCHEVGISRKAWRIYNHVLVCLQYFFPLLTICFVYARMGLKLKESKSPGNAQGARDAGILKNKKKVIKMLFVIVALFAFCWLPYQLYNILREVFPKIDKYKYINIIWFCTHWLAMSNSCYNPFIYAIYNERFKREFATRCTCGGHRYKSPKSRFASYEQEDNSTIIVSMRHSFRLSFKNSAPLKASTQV
reported-property: IC50

Lookup: # return IC50 of CCCC1=CC(=C2NNC(C)=C2c2ccc(C(=O)OCC)o2)C(O)=CC1=O (system: recombinant tick kinin receptor (BMLK3) (Rhipicephalus microplus, UniProt Q9NHA4))
Found: > 25 µM

Lookup: # return IC50 of CCOc1ccc(NC(=N)/N=c2/nc(C(F)(F)F)cc(C)[nH]2)cc1 (system: recombinant tick kinin receptor (BMLK3) (Rhipicephalus microplus, UniProt Q9NHA4))
Found: > 25 µM

Lookup: # return IC50 of COc1ccc(-c2nc(CN3CCN(C(=O)c4ccc5c(c4)NC(=O)[C@H](C)S5)CC3)cs2)cc1 (system: recombinant tick kinin receptor (BMLK3) (Rhipicephalus microplus, UniProt Q9NHA4))
Found: > 25 µM

Lookup: # return IC50 of Cc1cccc(NC(=O)c2c(F)c(F)c(F)c(F)c2F)n1 (system: recombinant tick kinin receptor (BMLK3) (Rhipicephalus microplus, UniProt Q9NHA4))
Found: < 0.0285 µM

Lookup: # return IC50 of O=C(NC(=S)NNC(=O)c1cc(-c2ccccc2)nc2ccccc12)c1cccs1 (system: recombinant tick kinin receptor (BMLK3) (Rhipicephalus microplus, UniProt Q9NHA4))
Found: < 0.0285 µM

Lookup: # return IC50 of CCN(CC)c1ccc2cc(C(N)=O)c(=NNC(=O)c3cccs3)oc2c1 (system: recombinant tick kinin receptor (BMLK3) (Rhipicephalus microplus, UniProt Q9NHA4))
Found: > 25 µM

Lookup: # return IC50 of CC1(C)CSC(=NCc2ccccc2)N1C(=O)Cc1noc2ccccc12 (system: recombinant tick kinin receptor (BMLK3) (Rhipicephalus microplus, UniProt Q9NHA4))
Found: 0.252 µM

Lookup: # return IC50 of Cc1n[nH]c(C)c1N1C(=O)c2cccc3c(N4CCCCCC4)ccc(c23)C1=O (system: recombinant tick kinin receptor (BMLK3) (Rhipicephalus microplus, UniProt Q9NHA4))
Found: > 25 µM

Lookup: # return IC50 of O=C(Cn1cnc2ccccc21)NCc1ccc(OCc2ccccc2)cc1 (system: recombinant tick kinin receptor (BMLK3) (Rhipicephalus microplus, UniProt Q9NHA4))
Found: > 25 µM

Lookup: # return IC50 of CN1c2ccccc2Oc2nnc(Cl)cc21 (system: recombinant tick kinin receptor (BMLK3) (Rhipicephalus microplus, UniProt Q9NHA4))
Found: 0.0845 µM

Lookup: # return IC50 of Cc1ccc(-c2ccsc2C(=O)Nc2ccc3c(c2)CCO3)cc1 (system: recombinant tick kinin receptor (BMLK3) (Rhipicephalus microplus, UniProt Q9NHA4))
Found: 7.17 µM

###

molecular target: recombinant tick kinin receptor (BMLK3) (Rhipicephalus microplus); assay: Dose-response dual-addition calcium fluorescence assay on BMLK3 cells; format: cell-based; conditions: virtual hit molecules; dual-addition assay, recombinant tick kinin receptor (BMLK3) cells; read-out: BMLK3 EC50
Answer each item with its documented EC50.

Lookup: // fetch EC50 given entry N#CC(=C(O)c1ccc(-c2ccc(Cl)cc2Cl)o1)c1nc2ccccc2c(=O)[nH]1 [SACC-0112961]
Found: > 25 µM

Lookup: // fetch EC50 given entry C=CCNC(=S)NNC1=CC[C@@H](c2ccccc2)CC1 [SACC-0010978]
Found: > 25 µM

Lookup: // fetch EC50 given entry CCc1cc2c(NCc3ccco3)nc(C)nc2s1 [SACC-0047526]
Found: > 25 µM

Lookup: // fetch EC50 given entry Cc1nc(-c2ccc(CNc3ncnc4sccc34)o2)cs1 [SACC-0039825]
Found: < 0.0285 µM
